assay: Cynomolgus monkeys: hematology assays (Example 29); format: in vivo; conditions: day 43
In the oligonucleotide strings, read from the 5' end, every base follows the letter of its sugar. An asterisk marks phosphorothioate; unmarked linkages are phosphodiester. Other units and linkages are bracketed, terminal groups are in braces. A string of capitals states the bases alone. e = 2'-O-(2-methoxyethyl) (MOE); [5mC] = 5-methylcytosine; d = 2'-deoxy (DNA)
Could you please report measured platelet count for the items listed next?
Entry rule: numbers only, all in µL⁻¹.

Could you tell me which platelet count is on file for ISIS 416838: gapmer of Table 6 (antisense eG*e[5mC]*eA*eA*e[5mC]*d[5mC]*dG*dG*dG*dA*dT*dG*dA*dT*dG*eA*eG*eT*eG*e[5mC]) ?
365000

Could you tell me which platelet count is on file for ISIS 416858: gapmer of Table 8 (antisense eA*e[5mC]*eG*eG*e[5mC]*dA*dT*dT*dG*dG*dT*dG*d[5mC]*dA*d[5mC]*eA*eG*eT*eT*eT) ?
342000

Could you tell me which platelet count is on file for ISIS 416850: gapmer of Table 8 (antisense eT*eG*e[5mC]*eA*e[5mC]*dA*dG*dT*dT*dT*d[5mC]*dT*dG*dG*d[5mC]*eA*eG*eG*e[5mC]*e[5mC]) ?
490000

Could you tell me which platelet count is on file for ISIS 417002: gapmer of Table 8 (antisense eG*eG*dT*dG*d[5mC]*dA*d[5mC]*dA*dG*dT*dT*dT*d[5mC]*dT*dG*eG*e[5mC]*eA*eG*eG) ?
393000

Could you tell me which platelet count is on file for ISIS 416864: gapmer of Table 8 (antisense eG*eG*e[5mC]*eA*eG*d[5mC]*dG*dG*dA*d[5mC]*dG*dG*d[5mC]*dA*dT*eT*eG*eG*eT*eG) ?
351000

###

test system: human Factor XI mRNA; test: Antisense inhibition in HepG2 cells by microwalk gapmers, 75 nM, lipofectin (Example 3); format: cell-based; conditions: HepG2 cells, 75 nM, oligonucleotides targeted to nucleobases 1018 to 1042 of SEQ ID NO: 1
In the oligonucleotide strings, read from the 5' end, every base follows the letter of its sugar. An asterisk marks phosphorothioate; unmarked linkages are phosphodiester. Other units and linkages are bracketed, terminal groups are in braces. A string of capitals states the bases alone. e = 2'-O-(2-methoxyethyl) (MOE); [5mC] = 5-methylcytosine; d = 2'-deoxy (DNA)
ENDPOINT LABEL: % inhibition of human Factor XI mRNA levels (%)
Entry rule: numbers only, all in %.

Could you tell me which % inhibition of human Factor XI mRNA levels is on file for 416981 (antisense e[5mC]*e[5mC]*dG*dG*dG*dA*dT*dG*dA*dT*dG*dA*dG*dT*dG*e[5mC]*eA*eG*eA*eT) [compound 416981] ?
87

Could you tell me which % inhibition of human Factor XI mRNA levels is on file for 416835 (antisense eA*e[5mC]*e[5mC]*eG*eG*dG*dA*dT*dG*dA*dT*dG*dA*dG*dT*eG*e[5mC]*eA*eG*eA) [compound 416835] ?
83

Could you tell me which % inhibition of human Factor XI mRNA levels is on file for 416904 (antisense e[5mC]*e[5mC]*eG*dG*dG*dA*dT*dG*dA*dT*dG*dA*dG*dT*dG*d[5mC]*dA*eG*eA*eT) [compound 416904] ?
90

Could you tell me which % inhibition of human Factor XI mRNA levels is on file for 416985 (antisense eG*e[5mC]*dA*dA*d[5mC]*d[5mC]*dG*dG*dG*dA*dT*dG*dA*dT*dG*eA*eG*eT*eG*e[5mC]) [compound 416985] ?
88

Could you tell me which % inhibition of human Factor XI mRNA levels is on file for 412212 (antisense e[5mC]*e[5mC]*eG*eG*eG*dA*dT*dG*dA*dT*dG*dA*dG*dT*dG*e[5mC]*eA*eG*eA*eT) [compound 412212] ?
89

Could you tell me which % inhibition of human Factor XI mRNA levels is on file for 416907 (antisense e[5mC]*eA*eA*d[5mC]*d[5mC]*dG*dG*dG*dA*dT*dG*dA*dT*dG*dA*dG*dT*eG*e[5mC]*eA) [compound 416907] ?
90

Could you tell me which % inhibition of human Factor XI mRNA levels is on file for 416984 (antisense e[5mC]*eA*dA*d[5mC]*d[5mC]*dG*dG*dG*dA*dT*dG*dA*dT*dG*dA*eG*eT*eG*e[5mC]*eA) [compound 416984] ?
89

Could you tell me which % inhibition of human Factor XI mRNA levels is on file for 416837 (antisense e[5mC]*eA*eA*e[5mC]*e[5mC]*dG*dG*dG*dA*dT*dG*dA*dT*dG*dA*eG*eT*eG*e[5mC]*eA) [compound 416837] ?
90

Could you tell me which % inhibition of human Factor XI mRNA levels is on file for 416838 (antisense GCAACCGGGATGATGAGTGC; 5-10-5 gapmer, wing sugar chemistry not given here, further chemistry not given here) [compound 416838] ?
94

Could you tell me which % inhibition of human Factor XI mRNA levels is on file for 416836 (antisense eA*eA*e[5mC]*e[5mC]*eG*dG*dG*dA*dT*dG*dA*dT*dG*dA*dG*eT*eG*e[5mC]*eA*eG) [compound 416836] ?
89

Could you tell me which % inhibition of human Factor XI mRNA levels is on file for 416906 (antisense eA*eA*e[5mC]*d[5mC]*dG*dG*dG*dA*dT*dG*dA*dT*dG*dA*dG*dT*dG*e[5mC]*eA*eG) [compound 416906] ?
88

Could you tell me which % inhibition of human Factor XI mRNA levels is on file for 416982 (antisense eA*e[5mC]*d[5mC]*dG*dG*dG*dA*dT*dG*dA*dT*dG*dA*dG*dT*eG*e[5mC]*eA*eG*eA) [compound 416982] ?
84

Could you tell me which % inhibition of human Factor XI mRNA levels is on file for 413474 (antisense eA*eG*e[5mC]*eA*eA*d[5mC]*d[5mC]*dG*dG*dG*dA*dT*dG*dA*dT*eG*eA*eG*eT*eG) [compound 413474] ?
93

Could you tell me which % inhibition of human Factor XI mRNA levels is on file for 416908 (antisense eG*e[5mC]*eA*dA*d[5mC]*d[5mC]*dG*dG*dG*dA*dT*dG*dA*dT*dG*dA*dG*eT*eG*e[5mC]) [compound 416908] ?
98

Could you tell me which % inhibition of human Factor XI mRNA levels is on file for 416983 (antisense eA*eA*d[5mC]*d[5mC]*dG*dG*dG*dA*dT*dG*dA*dT*dG*dA*dG*eT*eG*e[5mC]*eA*eG) [compound 416983] ?
86

Could you tell me which % inhibition of human Factor XI mRNA levels is on file for 416905 (antisense eA*e[5mC]*e[5mC]*dG*dG*dG*dA*dT*dG*dA*dT*dG*dA*dG*dT*dG*d[5mC]*eA*eG*eA) [compound 416905] ?
85

###

system: human Factor XI mRNA; assay: Dose-dependent antisense inhibition in HepG2 cells, lipofectin (Example 2); assay type: cell-based; details: 75 nM, approximately 16 hours
In the oligonucleotide strings, read from the 5' end, every base follows the letter of its sugar. An asterisk marks phosphorothioate; unmarked linkages are phosphodiester. Other units and linkages are bracketed, terminal groups are in braces. A string of capitals states the bases alone. e = 2'-O-(2-methoxyethyl) (MOE); [5mC] = 5-methylcytosine; d = 2'-deoxy (DNA)
Could you please report measured percent inhibition of Factor XI for the items listed next?
Returns: string containing the numeric result and its unit.

Could you tell me which percent inhibition of Factor XI is on file for 413481 (antisense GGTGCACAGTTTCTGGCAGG; sugars from the 5' end e5 d10 e5, backbone and methylation of C not given here) [compound 413481] ?
67%

Could you tell me which percent inhibition of Factor XI is on file for 413476 (antisense eT*eT*eG*eA*eG*dA*dT*dT*d[5mC]*dT*dT*dT*dG*dG*dG*e[5mC]*e[5mC]*eA*eT*eT) [compound 413476] ?
73%

Could you tell me which percent inhibition of Factor XI is on file for 412212 (antisense e[5mC]*e[5mC]*eG*eG*eG*dA*dT*dG*dA*dT*dG*dA*dG*dT*dG*e[5mC]*eA*eG*eA*eT) [compound 412212] ?
73%

Could you tell me which percent inhibition of Factor XI is on file for 412225 (antisense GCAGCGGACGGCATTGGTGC; sugars from the 5' end e5 d10 e5, backbone and methylation of C not given here) [compound 412225] ?
78%

Could you tell me which percent inhibition of Factor XI is on file for 412203 (antisense eA*eA*eT*eG*eT*d[5mC]*dT*dT*dT*dG*dT*dT*dG*d[5mC]*dA*eA*eG*e[5mC]*eG*e[5mC]) [compound 412203] ?
77%

Could you tell me which percent inhibition of Factor XI is on file for 412224 (antisense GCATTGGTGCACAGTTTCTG; sugars from the 5' end e5 d10 e5, backbone and methylation of C not given here) [compound 412224] ?
70%

Could you tell me which percent inhibition of Factor XI is on file for 413468 (antisense eG*eT*e[5mC]*eT*eA*dG*dG*dT*d[5mC]*d[5mC]*dA*d[5mC]*dA*dT*dA*eA*eA*eT*eG*eT) [compound 413468] ?
78%

Could you tell me which percent inhibition of Factor XI is on file for 412223 (antisense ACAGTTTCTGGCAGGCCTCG; sugars from the 5' end e5 d10 e5, backbone and methylation of C not given here) [compound 412223] ?
76%

Could you tell me which percent inhibition of Factor XI is on file for 413482 (antisense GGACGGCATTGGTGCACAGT; sugars from the 5' end e5 d10 e5, backbone and methylation of C not given here) [compound 413482] ?
74%

Could you tell me which percent inhibition of Factor XI is on file for 413469 (antisense eT*eG*e[5mC]*e[5mC]*e[5mC]*dT*dT*d[5mC]*dA*dT*dG*dT*d[5mC]*dT*dA*eG*eG*eT*e[5mC]*e[5mC]) [compound 413469] ?
70%
